- TEST NAME: chemical recovery from spiked human plasma; higher = better extraction
- RECORDED CONDITIONS: pooled human plasma; extraction method: SPE only (HLB 96-well)
READOUT KIND: chemical recovery (%)

INSERT INTO results (compound, readout_kind, u, assay_result) VALUES
  ('ClC1=C(Cl)C2(Cl)C3C4OC4C(Cl)C3C1(Cl)C2(Cl)Cl (stereo not given) [Heptachlor epoxide]', 'chemical recovery', '%', 1.06),
  ('Nc1ccc2nc3ccc(N)cc3nc2c1', 'chemical recovery', '%', 38.5),
  ('C1CCC(NC2CCCCC2)CC1', 'chemical recovery', '%', 35.2),
  ('CCNc1nc(NC(C)C)nc(SC)n1', 'chemical recovery', '%', 41.6),
  ('CN(C)S(=O)(=O)c1ccc(N)cc1 [4-Amino-N,N-dimethylbenzenesulfonamide]', 'chemical recovery', '%', 63.7);

---

- TEST NAME: chemical recovery by SPE of plasma after PDMS sampling; higher = better extraction
- RECORDED CONDITIONS: pooled human plasma; extraction method: HLB SPE of plasma after PES; equilibration time (d): 3
Classification field: T = chemical recovery by SPE of plasma at or over 6%; F = chemical recovery by SPE of plasma under 6%.

INSERT INTO results (compound, answer_label) VALUES
  ('Oc1nc(O)c2cn[nH]c2n1', 'F'),
  ('Clc1cc(Cl)c(-c2cc(Cl)c(Cl)cc2Cl)cc1Cl', 'F'),
  ('COc1ccccc1Oc1c(NS(=O)(=O)c2ccc(C(C)(C)C)cc2)nc(-c2ncccn2)nc1OCCO', 'T'),
  ('CC[C@H](C)[C@H]1O[C@]2(C=C[C@@H]1C)C[C@@H]1C[C@@H](C/C=C(\C)[C@@H](O[C@H]3C[C@H](OC)[C@@H](O[C@H]4C[C@H](OC)[C@@H](NC)[C@H](C)O4)[C@H](C)O3)[C@@H](C)/C=C/C=C3\CO[C@@H]4[C@H](O)C(C)=C[C@@H](C(=O)O1)[C@]34O)O2', 'T'),
  ('Clc1ccc(-c2ccc(Cl)cc2Cl)cc1', 'F'),
  ('C1=Cc2ccccc2Nc2ccccc21', 'F'),
  ('N#C/N=C1\SCCN1Cc1ccc(Cl)nc1', 'T'),
  ('C#C[C@]1(O)C=C[C@H]2[C@@H]3CCC4=CC(=O)CC[C@@H]4[C@H]3CC[C@@]21CC', 'T'),
  ('CCOC1Oc2ccc(OS(C)(=O)=O)cc2C1(C)C (stereo not drawn) [Ethofumesate]', 'F'),
  ('CO/N=C(/C1=NOCCO1)c1ccccc1Oc1ncnc(Oc2ccccc2Cl)c1F', 'F'),
  ('Cc1cccc(C(=O)O)c1N(Cn1cccn1)C(=O)C(=O)O', 'T'),
  ('CCc1cccc(C)c1N(C(=O)C(=O)O)C(C)C(=O)O (stereo not drawn)', 'T'),
  ('CC(C)(Oc1ccc(Cl)cc1)C(=O)O', 'T'),
  ('O=[N+]([O-])c1ccc(O)c([N+](=O)[O-])c1', 'T'),
  ('NC(=O)/N=C1\SCCN1Cc1ccc(Cl)nc1 [Thiacloprid amide]', 'T'),
  ('NC(=O)Nc1ccc(Cl)c(Cl)c1', 'T');

---

Items are presented alongside their recorded chemical recovery.
- TEST NAME: chemical recovery from spiked human plasma; higher = better extraction
- RECORDED CONDITIONS: pooled human plasma; extraction method: solvent precipitation (ACN + hexane)
READOUT KIND: chemical recovery (%)

INSERT INTO assay_data (compound, readout_kind, assay_result) VALUES
  ('CC(Oc1ccc(Oc2ncc(C(F)(F)F)cc2Cl)cc1)C(=O)O (configuration not stated)', 'chemical recovery', 68.1),
  ('CCCC1COC(Cn2cncn2)(c2ccc(Cl)cc2Cl)O1 (configuration not stated)', 'chemical recovery', 70.3),
  ('CC1(C)CCC(Cc2ccc(Cl)cc2)C1(O)Cn1cncn1 (configuration not stated)', 'chemical recovery', 74.3),
  ('CC(CCc1ccccc1)NCC(O)c1ccc(O)c(C(N)=O)c1 (configuration not stated)', 'chemical recovery', 70.5),
  ('c1ccc2sc(NC3CCCCC3)nc2c1', 'chemical recovery', 74.8),
  ('Cc1cc(C(F)(C(F)(F)F)C(F)(F)F)ccc1NC(=O)c1cccc(I)c1C(=O)NC(C)(C)CS(C)(=O)=O [Flubendiamide]', 'chemical recovery', 53.1),
  ('Cc1ccc2ccc3cccc4ccc1c2c34', 'chemical recovery', 34),
  ('CC(C)NCC(O)COc1ccc(COCCOC(C)C)cc1 (configuration not stated)', 'chemical recovery', 70.7),
  ('Oc1ccc(Cl)cc1', 'chemical recovery', 98),
  ('CC(C)(C)c1cc(Cn2c(=O)n(Cc3cc(C(C)(C)C)c(O)c(C(C)(C)C)c3)c(=O)n(Cc3cc(C(C)(C)C)c(O)c(C(C)(C)C)c3)c2=O)cc(C(C)(C)C)c1O [Antioxidant-3114]', 'chemical recovery', 58.4),
  ('CC[C@@]1([C@@H]2O[C@@H]([C@H]3O[C@@](O)(CO)[C@H](C)C[C@@H]3C)C[C@@H]2C)CC[C@H]([C@]2(C)CC[C@]3(C[C@H](O)[C@@H](C)[C@@H]([C@@H](C)[C@@H](OC)[C@H](C)C(=O)O)O3)O2)O1', 'chemical recovery', 1.03),
  ('CN(C)CCC(c1ccc(Cl)cc1)c1ccccn1 (configuration not stated)', 'chemical recovery', 54),
  ('C=CCC1(C(C)CCC)C(=O)NC(=O)NC1=O (configuration not stated)', 'chemical recovery', 72.8),
  ('Cc1c([N+](=O)[O-])c(C)c([N+](=O)[O-])c(C(C)(C)C)c1[N+](=O)[O-]', 'chemical recovery', 33.5),
  ('N[C@@H](Cc1cc(I)c(Oc2cc(I)c(O)c(I)c2)c(I)c1)C(=O)O', 'chemical recovery', 30.8),
  ('Cc1ccc(S(=O)(=O)O)c(C)c1', 'chemical recovery', 74.3),
  ('CCNC(=O)[C@@H](C)OC(=O)Nc1ccccc1 [Carbetamide]', 'chemical recovery', 69.9);

---

- TEST NAME: chemical recovery by SPE of plasma after PDMS sampling; higher = better extraction
- RECORDED CONDITIONS: pooled human plasma; extraction method: HLB SPE of plasma after PES; equilibration time (d): 3
Items are presented alongside their recorded chemical recovery by SPE of plasma.
READOUT KIND: chemical recovery by SPE of plasma (%)

INSERT INTO measurements (molecule, assay_result) VALUES
  ('Cn1ccnc1S [Methimazol]', 0.612),
  ('C[C@]12C=CC(=O)C=C1CC[C@@H]1[C@@H]2C(=O)C[C@@]2(C)[C@H]1CC[C@]2(O)C(=O)CO [Prednisone]', 43.7),
  ('CO/C=C(/C(=O)O)c1ccccc1Oc1cc(Oc2ccccc2C#N)ncn1 [Azoxystrobin acid]', 50.4),
  ('Nc1ccc(-c2ccc(N)c(Cl)c2)cc1Cl [3,3''-Dichlorobenzidine]', 17.3),
  ('CCOC(=O)[C@H](CCc1ccccc1)N[C@@H](C)C(=O)N1CCC[C@H]1C(=O)O [Enalapril]', 47),
  ('NC(=O)N1c2ccccc2C=Cc2ccccc21 [Carbamazepine]', 21.1),
  ('CCC(=C(c1ccc(O)cc1)c1ccc(OCCN(C)C)cc1)c1ccccc1 [4-Hydroxytamoxifen]', 7.29),
  ('N#Cc1nn(-c2c(Cl)cc(C(F)(F)F)cc2Cl)c(N)c1C(F)(F)F [Fipronil desulfinyl]', 18),
  ('c1ccc(-c2cccc(-c3ccccc3)c2)cc1 [m-Terphenyl]', 2.9);

---

Items are presented alongside their recorded chemical recovery into PDMS.
- TEST NAME: chemical recovery into PDMS from spiked human plasma; higher = better extraction
- RECORDED CONDITIONS: pooled human plasma; extraction method: PES with PDMS; equilibration time (d): 6
READOUT KIND: chemical recovery into PDMS (%)

INSERT INTO measurements (compound, u, assay_result) VALUES
  ('CC(=O)[C@@]1(O)CC[C@H]2[C@@H]3C=C(Cl)C4=CC(=O)[C@@H]5C[C@@H]5[C@]4(C)[C@H]3CC[C@@]21C', '%', 39.5),
  ('COCCN(C(=O)CCl)c1c(C)cccc1C', '%', 38),
  ('CN(C)NC(=O)CCC(=O)O [Daminozide]', '%', 0.0133),
  ('CC(C)N(C(=O)COc1nnc(C(F)(F)F)s1)c1ccc(F)cc1', '%', 51.2),
  ('O=[N+]([O-])/N=C1\NCCN1Cc1ccc(Cl)nc1', '%', 7.69),
  ('O=P(OCCCl)(OCCCl)OCCCl [Tris(2-chloroethyl)phosphate]', '%', 40.8),
  ('CN1C(=O)C(O)N=C(c2ccccc2)c2cc(Cl)ccc21 (centres undefined)', '%', 17.6),
  ('COC(=O)N(C(=O)N1CO[C@@]2(C(=O)OC)Cc3cc(Cl)ccc3C2=N1)c1ccc(OC(F)(F)F)cc1', '%', 53.2),
  ('Clc1ccc2[nH]nnc2c1', '%', 1.34);
